Origin of values: patent US20170002055A1

# System under test: HLA-A*02:01 (Homo sapiens, UniProt P04439, D140Y/D185E/D98H/E176V/E277Q/G131W/G231S/I119V/I121R/I166T/I218V/L300P/L318F/N151K/N90K/P208A/P217A/Q86G/Q94H/R138H/R169H/T345S)
# Test details: MHC binding assay (UV-ligand exchange, β2m ELISA, peptide exchange yield)
# Study conditions: MHC class I binding score; binding to HLA-A*02:01 ranged by peptide exchange yield (UV-ligand exchange, β2m ELISA)
Reported endpoint: Peptide exchange

> print(dat)
                                  substance           observed
1  246 (LLWEVVSQL; listed as Homo sapiens) [compound 246]  “+++” (≧50 = +++)
2  110 (FLSQVDFEL; listed as Homo sapiens) [compound 110]  “+++” (≧50 = +++)
3  571 (LLLTTIPQI; listed as Homo sapiens) [compound 571]  “+++” (≧50 = +++)
4  357 (SMHDLVLQV; listed as Homo sapiens) [compound 357]  “+++” (≧50 = +++)
5  453 (KLLEATSAV; listed as Homo sapiens) [compound 453]   “++” (≧20% = ++)
6  69 (FQLDPSSGVLVTV; listed as Homo sapiens) [compound 69]  “+++” (≧50 = +++)

Give Peptide exchange for all substances that follow.
1. 5 (HLTEVYPEL; listed as Homo sapiens) [compound 5]
2. 497 (GLLEKLTAI; listed as Homo sapiens) [compound 497]
3. 177 (YLLPEEYTSTL; listed as Homo sapiens) [compound 177]
4. 299 (YLLETSGNL; listed as Homo sapiens) [compound 299]
5. 62 (VLLDVSAGQLLM; listed as Homo sapiens) [compound 62]

["“+++” (≧50 = +++)", "“+++” (≧50 = +++)", "“++++” (≧75% = ++++)", "“+++” (≧50 = +++)", "“++++” (≧75% = ++++)"]

Give Peptide exchange for all substances that follow.
1. 54 (SLLEQGKEPWMV; listed as Homo sapiens) [compound 54]
2. 148 (ALNPEIVSV; listed as Homo sapiens) [compound 148]
3. 317 (SLAALVVHV; listed as Homo sapiens) [compound 317]

["“+++” (≧50 = +++)", "“++” (≧20% = ++)", "“+++” (≧50 = +++)"]

Give Peptide exchange for all substances that follow.
1. 530 (VMYADIGGMDI; listed as Homo sapiens) [compound 530]
2. 610 (LLAPTPYIIGV; listed as Homo sapiens) [compound 610]
3. 128 (YLFDDPLSAV; listed as Homo sapiens) [compound 128]
4. 204 (KIAENVEEV; listed as Homo sapiens) [compound 204]
5. 72 (SLLELDGINL; listed as Homo sapiens) [compound 72]
6. 63 (YLLPSGGSVTL; listed as Homo sapiens) [compound 63]
7. 400 (SLLTEQDLWTV; listed as Homo sapiens) [compound 400]
8. 408 (VLDDSIYLV; listed as Homo sapiens) [compound 408]

“+++” (≧50 = +++)
“+++” (≧50 = +++)
“++” (≧20% = ++)
“++” (≧20% = ++)
“+++” (≧50 = +++)
“++” (≧20% = ++)
“++” (≧20% = ++)
“++” (≧20% = ++)

Give Peptide exchange for all substances that follow.
1. 462 (KLAKQPETV; listed as Homo sapiens) [compound 462]
2. 327 (GLAPFTEGISFV; listed as Homo sapiens) [compound 327]

1. “+++” (≧50 = +++)
2. “+++” (≧50 = +++)
